Entries annotated with measured self-cleavage
B1: CPEB3 Ribozyme (parent)
chain: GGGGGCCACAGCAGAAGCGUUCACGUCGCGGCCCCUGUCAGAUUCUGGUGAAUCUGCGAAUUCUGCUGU

# Variants of: B1
# Test Method Notes: self-cleavage, relative activity (ratio to wild type); higher = more cleavage; co-transcriptional

# annotated cases, reported self-cleavage shown
>  <Mutant>
C24U G31C

>  <self-cleavage>
0.0935

$$$$
>  <Mutant>
G1C C66G

>  <self-cleavage>
0.248

$$$$
>  <Mutant>
C18U G56C

>  <self-cleavage>
0.341

$$$$
>  <Mutant>
G56U G65U

>  <self-cleavage>
0.468

$$$$
>  <Mutant>
G56U A59U

>  <self-cleavage>
0.672

$$$$
>  <Mutant>
U64C

>  <self-cleavage>
0.941

$$$$
>  <Mutant>
C9A G56U

>  <self-cleavage>
0.98

$$$$
>  <Mutant>
G3A A40C

>  <self-cleavage>
0.166

$$$$

Lab note: C6A U55A gave self-cleavage of 0.396

Lab note: G30C C35A gave self-cleavage of 0.254

Lab note: C9A C32A gave self-cleavage of 1

src = the RNAGym collection of RNA variant scans (doi:10.7554/elife.80360)
